The measurements presented in this section are drawn from patent US11767341B2.

Entries with reported log10 MIC on S. aureus BAA 977 iErmA
Please be aware that the numbers have been log10-transformed from MIC in µg/mL.

Example cases with answers are listed next.
CSC1O[C@H]([C@H](NC(=O)[C@H]2NC[C@@H]3CC(c4cccc5cnccc45)=CCO[C@H]32)[C@H](C)Cl)C(O)[C@@H](O)[C@H]1O (stereo partly shown) = 1.20
CSC1O[C@H]([C@H](NC(=O)[C@H]2NC[C@@H]3C=C(C#Cc4cccc(F)c4)CCO[C@@H]23)[C@H](C)Cl)C(O)[C@@H](O)[C@H]1O (stereo partly shown) = -0.60
CSC1O[C@H]([C@H](NC(=O)[C@H]2NC[C@@H]3CN(Cc4ccccc4)CCO[C@H]32)[C@H](C)Cl)C(O)[C@@H](O)[C@H]1O (stereo partly shown) = 0.30

Can you look up log10 MIC on S. aureus BAA 977 iErmA for CSC1O[C@H]([C@H](NC(=O)[C@H]2NC[C@@H]3CC=CCO[C@H]32)[C@H](C)Sc2ccc(-c3cncnc3)cc2)C(O)[C@@H](O)[C@H]1O (stereo partly shown) ? 0.30

Item: CSC1O[C@H]([C@H](NC(=O)[C@H]2NC[C@@H]3CC(c4ccccc4)=CCO[C@H]32)[C@H](C)Cl)C(O)[C@@H](O)[C@H]1O (stereo partly shown) Test system: S. aureus BAA 977 iErmA Read-out: log10 MIC Value: ? 0.00

GET /values?readout=log10 MIC&system=S. aureus BAA 977 iErmA&item= CCCN1CCO[C@@H]2[C@H](CN[C@@H]2C(=O)N[C@H]([C@H](C)Cl)[C@H]2OC(SC)[C@H](O)C(O)C2O)C1 (stereo partly shown) 0.60
